Target: Neu5Ac(a2-3)Gal(b1-4)[Fuc(a1-3)]GlcNAc(b1-3)Gal(b1-4)GlcNAc
Assay: glycan array binding signal (z-score within array); higher = stronger binding
Conditions: glycan notation: IUPAC condensed, linker removed
The entries come from a sample that favours the strongest signals as a whole.
For each record, write down the corresponding glycan array binding signal (z-score).

As a guide, the following entries are already answered.
CML1 (Coprinopsis cinerea) (protein) MAIFHTGSELFIITRGPGKLTLLTWGGLNNLRSVIGAIPTENTGVTKWAVSFSHNYTRFSFIWEGQGEACYQIGNGLTRSPVGRSWSSSSTIHWGSSTVITEDVTSVVPGAVNRDKVTTAYALPDNL    2.41
Cohesin-marm-DC-ASGPR-CRD (protein) LDITSHHHHHHDDLDAVRIKVDTVNAKPGDTVRIPVRFSGIPSKGIANCDFVYSYDPNVLEIIEIEPGDIIVDPNPDKSFDTAVYPDRKIIVFLFAEDSGTGAYAITKDGVFATIVAKVKEGAPNGLSVIKFVEVGGFANNDLVEQKTQFFDGGVNVGDTTEPATPTTPVTTPTTTDDLDAASCPINWVEHQGSCYWFSRSGKTWPEAERYCQLENTHLVVINSREEQNFVQAHLGSAYTWMGLSDPEGVWKWVDGTDYSSGFQNWKPGQPDDWQGHGLGGGEDCAHFHPDGRWNDDVCQRSYHWVCEAGLTQASQDSH    -0.388
Nc3LysM (protein) QFTVPPDTTAEPNTIKTCTWWHVAGSGDSCTSIASTYGITSEQFARWDMETTDSPKNPSVATACKLTVGNSYCIENNFGQDDPPTPSISSSTLIGTATTSTTASTTTGNGISTPTPIQEGMETATTTTSSGNGITTPTPTQAGMETVGNCDRFHLVKSGDQCGTIASTYGITLANFYSWNPAVGTSCQSLWLDTYVCVRTIGFVPPKTTTTTTKKPTSTTSAGGVATPTPTQPGMETVSGCKKFHKGRGNVSTVASGDQCGTIATRYGISLANFYSWNPAVGSSCQTLWLDYYVCVGR    0.009
M6PR (Bos taurus), P11456 (protein) MMSPLHSSWRTGLLLLLLFSVAVRESWQTEEKTCDLVGEKGKESEKELALLKRLTPLFNKSFESTVGQSPDMYSYVFRVCREAGNHSSGAGLVQINKSNGKETVVGRFNETQIFNGSNWIMLIYKGGDEYDNHCGREQRRAVVMISCNRHTLADNFN    0.517
ERGIC1-EDTA (Homo sapiens), Q969X5 (protein) MKFLVNVALVFMVVYISYIYAAAHMHHHHHHDYDIPTTENLYFQGSEVVNELYVDDPDKDSGGKIDVSLNISLPNLHCELVGLDIQDEMGRHEVGHIDNSMKIPLNNGAGCRFEGQFSINKVPGNFHVSTHSATAQPQNPDMTHVIHKLSFGDTLQVQNIHGAFNALGGADRLTSNPLASHDYILKIVPTVYEDKSGKQRYSYQYTVANKEYVAYSHTGRIIPAIWFRYDLSPITVKYTE    2.27

*Q* // lookup glycan array binding signal (z-score) for GALT1 615 (Arabidopsis thaliana), Q8L7F9 (protein) DPMRGSHHHHHHGMASMTGGQQMGRDLYDDDDKSRLQKPYITAAASVVVTPNTTLPMEWLRITLPDFMKEARNTQEAISGDDIAVVSGLFVEQNVSKEEREPLLTWNRLESLVDNAQSLVNGVDAIKEAGIVWESLVSAVEAKKLVDVNENQTRKGKEELCPQFLSKMNATEADGSSLKLQIPCGLTQGSSITVIGIPDGLVGSFRIDLTGQPLPGEPDPPIIVHYNVRLLGDKSTEDPVIVQNSWTASQDWGAEERCPKFDPDMNKKVDDLDECNKMVGGEINRTSSTSLQSNTSRGVPVAREASKHEKYFPFKQGFLSVATLRVGTEGMQMTVDGKHITSFAFRDTLEPWLVSEIRITGDFRLISILA
*A* 0.904
